# Tested on: S. cerevisiae NKY1551 his4x/his4B, sporulating;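 also: active if sensitivity score above 5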
# PROCEDURE SUMMARY: HIS4 meiotic recombination assay sensitivity score (z-score vs DMSO controls); higher = stronger inhibition of sporulation/recombination, active = hit call of the paper
Structures can show the parent of a compound that is named as a salt.
Think of -0.5 as a floor: if HIS4 meiotic recombination assay sensitivity score stands on it or above, it is true; beneath it, false.

Does the compound C[C@@H](O)[C@H]1C(=O)N2C(C(=O)O)=C(S[C@@H]3CN[C@H](C(=O)N(C)C)C3)[C@H](C)[C@H]12 [Meropenem] (stock concentration (mM, diluted 1:100): 11.4) have recorded HIS4 meiotic recombination assay sensitivity score that is -0.5 or more? false

Given Cc1c(O)cccc1C(=O)N[C@@H](CSc1ccccc1)[C@H](O)CN1C[C@H]2CCCC[C@H]2C[C@H]1C(=O)NC(C)(C)C [Nelfinavir mesylate] (stock concentration (mM, diluted 1:100): 8.6) , state whether its HIS4 meiotic recombination assay sensitivity score is at least -0.5. true

Form field: HIS4 meiotic recombination assay sensitivity score at least -0.5? Entry: CNC(=C[N+](=O)[O-])NCCSCc1csc(CN(C)C)n1 [Nizatidine] (stock concentration (mM, diluted 1:100): 10) false

Does COc1cc2c(cc1OC)C(=O)C(CC1CCN(Cc3ccccc3)CC1)C2 (stereo unspecified) [Donepezil] (stock concentration (mM, diluted 1:100): 9.1) have a reported HIS4 meiotic recombination assay sensitivity score of at least -0.5? true

Item COc1ccc(C2CNC(=O)C2)cc1OC1CCCC1 (stereo unspecified) [Rolipram] (stock concentration (mM, diluted 1:100): 10) with HIS4 meiotic recombination assay sensitivity score of -0.5 or above? true

Decide: HIS4 meiotic recombination assay sensitivity score of c1ccc(-c2ccc(C(c3ccccc3)n3ccnc3)cc2)cc1 (stereo unspecified) [Bifonazole] (stock concentration (mM, diluted 1:100): 10) >= -0.5? false
